In this section, each of the molecules is paired with its reported TGI.
Test system: SNB-19 CNS
Assay: NCI tumour cell line growth inhibition, 48 h

Some solved cases for reference:
COc1cc(/C=C/C(=O)c2ccc(F)cc2)ccc1OCCCCOc1cc2c(cc1OC)C(=O)N1CCCC1C=N2 (stereo unspecified)    > 19.9 µM
c1ccc(C2(c3ccccc3)S/C(=C3/SC(c4ccccc4)(c4ccccc4)c4ccccc43)c3ccccc32)cc1    > 100 µM
COc1c(C(=O)/C(=N/Nc2cccc(Cl)c2)C(C)=O)c(O)c(OC)c2occc12    > 100 µM
CC1(OCc2ccccc2)C(=O)N2C1N(C(=O)OCc1ccccc1)CC2(C)C (stereo unspecified)    > 100 µM

The molecule listed as CCCCCCCCCCCCCCCCCc1cc(Cl)nc(Cl)n1 has a reported TGI of > 100 µM

The molecule listed as COC(=O)C12OCC34C(CC5C(C)C6=CC(=O)OC6=CC5(C)C3C(O)C1O)OC(=O)C(OC(C)=O)C24 (stereo unspecified) has a reported TGI of > 91 µM

----------
Tested on: SNB-19 CNS
Assay: NCI tumour cell line growth inhibition, 48 h
MEASURED QUANTITY: TGI

Some solved cases for reference:
CCCCN1C(=O)C2c3[nH]c4ccccc4c3C3CCCCC3C2C1=O (mixture of isomers)    64.2 µM
CCOC(=O)C1Nc2ccc([N+](=O)[O-])cc2[C@H]2OCC[C@@H]12 (stereo not given in full)    > 100 µM
O=[N+]([O-])c1ccc(CSc2c3ccccc3nc3ccccc23)cc1    37.4 µM

The molecule listed as COc1ccc(/C=C(/C(=O)N2CCN(c3ccc(C)cc3)CC2)c2cc(OC)c(OC)c(OC)c2)cc1N has a reported TGI of > 100 µM

The molecule listed as Cc1cc(NCCCNc2ccnc3cc(Cl)ccc23)nc(Nc2ccc(C(=O)N3CCCCC3)cc2)n1 has a reported TGI of 12.5 µM

The molecule listed as Cn1c(=O)c2c(nc(N3CCOCC3)n2CCCNCC(O)c2ccc(O)c(O)c2)n(C)c1=O (stereo not given) has a reported TGI of > 100 µM

The molecule listed as C/C(=N\N)C(CN1CCCCC1)C(c1ccccc1)c1c(O)c2ccccc2oc1=O (stereo not given) has a reported TGI of > 100 µM

The molecule listed as COC(=O)c1c(O)ccc2c1c1cc3ccccc3c(O)c1n2Cc1ccccc1Cl has a reported TGI of > 100 µM

----------
System: SNB-19 CNS
Assay: NCI tumour cell line growth inhibition, 48 h
MEASURED QUANTITY: TGI

Some solved cases for reference:
C[C@@]1([C@H](OC(=O)c2cccc3ccccc23)C(N)=O)CO1    > 37.5 µM
Cc1cc(C)nc(NS(=O)(=O)c2ccc(Nc3nc4nc(NCc5ccccc5)nc(-c5ccc(O)cc5)c4c(=O)[nH]3)cc2)n1    > 100 µM
O=C(c1ccc(-c2ccccc2)cc1)N(Cc1cccnc1)C(=S)N(Cc1cccnc1)C(=O)c1ccc(-c2ccccc2)cc1    > 100 µM

Field TGI (SNB-19 CNS), entry CCC(C#N)NCc1ccc(CNC(C#N)CC)cc1 (configuration not stated) : > 100 µM

Field TGI (SNB-19 CNS), entry Cc1cccc(C)c1NC(=O)C(=O)C(c1ccccc1Cl)S(=O)(=O)Cc1ccccc1Cl (configuration not stated) : > 92 µM

Field TGI (SNB-19 CNS), entry Clc1ccc(-c2c3nc(c(-c4ccc(Cl)cc4)c4ccc([nH]4)c(-c4ccc(Cl)cc4)c4nc(c(-c5ccc(Cl)cc5)c5ccc2[nH]5)C=C4)C=C3)cc1 : > 100 µM

Field TGI (SNB-19 CNS), entry O=c1[nH]c(=S)n(-c2cccc3ccccc23)c(O)c1/C=C1\C=Nc2ccccc21 : 11.3 µM
